reported-metric: IC50

The measured IC50 that Cc1ccc(NC(=O)C[C@H](CCC(=O)O)c2noc([C@H]3C[C@@H](CC(C)(C)C)C3)c2C2CC2)c(Cl)c1 showed for Acetylcholinesterase (Electrophorus electricus) is > 10 µM

----------
- test-name: Inhibition of human nicotinic receptor
pIC50: −log10 of the molar value.
reported-metric: pIC50

What the record says about Cc1ccc(NC(=O)C[C@H](CCC(=O)O)c2noc([C@H]3C[C@@H](CC(C)(C)C)C3)c2C2CC2)c(Cl)c1 : pIC50 is < 5.00

----------
- test-name: Cmax in human at 600 […], po administered as single dose and measured upto 144 hrs
- Type: ADME, organism-based
- assay-conditions: in vivo
reported-metric: Cmax (µg/mL)
State just the number; it will be interpreted in µg/mL.

What the record says about Cc1ccc(NC(=O)C[C@H](CCC(=O)O)c2noc([C@H]3C[C@@H](CC(C)(C)C)C3)c2C2CC2)c(Cl)c1 : Cmax is 26.4

----------
So I've got a bunch of compounds here, and I need their Papp at 2 h, 25 µM values.
- test-name: Apparent permeability in human Caco-2 cells at 25 umol/L incubated for 2 hrs by LC/MS/MS analysis
- Assay type: ADME, cell-based
- assay-conditions: dose 25 µmol/L
State just the number; it will be interpreted in ×10⁻⁶ cm/s.

What the record says about Cc1ccc(NC(=O)C[C@H](CC(=O)O)c2noc([C@H]3C[C@@H](CC(C)C)C3)c2C2CC2)c(Cl)c1 : Papp at 2 h, 25 µM is 27.4

What the record says about Cc1ccc(NC(=O)C[C@H](Cc2nnn[nH]2)c2noc([C@H]3C[C@@H](CC(C)C)C3)c2C2CC2)c(C)c1 : Papp at 2 h, 25 µM is 21.8

----------
- test-name: Metabolic stability in human liver microsomes assessed as compound remaining at 5 umol/L measured after 60 mins by UPLC/MS analysis
- Assay type: ADME, Microsome
- assay-conditions: dose 5 µmol/L, read-out: Stability
Binary call on remaining at 1 h, 5 µM with cut-off 60%: strictly below means criterion met, and equality or higher means criterion not met.

Q: Is 60% strictly greater than the compound's reported remaining at 1 h, 5 µM? compound: Cc1ccc(NC(=O)CC(CC(=O)N(C)C)c2nnc([C@H]3C[C@@H](CC(C)C)C3)n2C2CC2)c(C)c1 (mixture of isomers)
Ans: criterion met

Q: Is 60% strictly greater than the compound's reported remaining at 1 h, 5 µM? compound: Cc1ccc(NC(=O)C[C@H](CC(=O)O)c2noc([C@H]3C[C@@H](CC(C)C)C3)c2C2CC2)c(C)c1C
Ans: criterion not met

Q: Is 60% strictly greater than the compound's reported remaining at 1 h, 5 µM? compound: Cc1ccc(NC(=O)C[C@H](CC(=O)O)c2noc([C@H]3C[C@@H](CC(C)C)C3)c2C2CC2)c(C)c1
Ans: criterion not met

Q: Is 60% strictly greater than the compound's reported remaining at 1 h, 5 µM? compound: Cc1cc(F)ccc1NC(=O)C[C@H](CC(=O)O)c1noc([C@H]2C[C@@H](CC(C)C)C2)c1C1CC1
Ans: criterion not met

Q: Is 60% strictly greater than the compound's reported remaining at 1 h, 5 µM? compound: Cc1cccc(C)c1NC(=O)C[C@H](CC(=O)O)c1noc([C@H]2C[C@@H](CC(C)C)C2)c1C1CC1
Ans: criterion not met

Q: Is 60% strictly greater than the compound's reported remaining at 1 h, 5 µM? compound: Cc1ccc(NC(=O)C[C@H](C[C@H]2C[C@@H](C(=O)O)C2)c2noc([C@H]3C[C@@H](CC(C)C)C3)c2C2CC2)c(C)c1
Ans: criterion not met

Q: Is 60% strictly greater than the compound's reported remaining at 1 h, 5 µM? compound: Cc1ccc(NC(=O)C[C@H](CC(=O)O)c2noc([C@H]3C[C@@H](CC(C)C)C3)c2C2CC2)c(Cl)c1
Ans: criterion not met

Q: Is 60% strictly greater than the compound's reported remaining at 1 h, 5 µM? compound: Cc1ccc(NC(=O)CC(Cc2ncco2)c2nnc([C@H]3C[C@@H](CC(C)C)C3)n2C2CC2)c(C)c1 (mixture of isomers)
Ans: criterion not met

Q: Is 60% strictly greater than the compound's reported remaining at 1 h, 5 µM? compound: Cc1ccc(NC(=O)CC(Cc2nnn[nH]2)c2nnc([C@H]3C[C@@H](CC(C)C)C3)n2C2CC2)c(C)c1 (mixture of isomers)
Ans: criterion not met

Q: Is 60% strictly greater than the compound's reported remaining at 1 h, 5 µM? compound: Cc1ccc(NC(=O)C[C@H](CC(=O)O)c2noc([C@H]3C[C@@H](CC(C)C)C3)c2C2CC2)cc1C
Ans: criterion not met

Q: Is 60% strictly greater than the compound's reported remaining at 1 h, 5 µM? compound: CCC(C)(C)C[C@H]1C[C@@H](c2onc([C@@H](CC(=O)O)CC(=O)Nc3ccc(C)cc3C)c2C2CC2)C1
Ans: criterion not met

Q: Is 60% strictly greater than the compound's reported remaining at 1 h, 5 µM? compound: Cc1ccc(NC(=O)C[C@H](CCC(=O)O)C(=O)N(C[C@H]2C[C@@H](CC(C)(C)C)C2)C2CC2)c(Cl)c1 (mixture of isomers)
Ans: criterion not met

Q: Is 60% strictly greater than the compound's reported remaining at 1 h, 5 µM? compound: Cc1ccc(NC(=O)C[C@H](CC(C)(C)O)c2nnc([C@H]3C[C@@H](CC(C)C)C3)n2C2CC2)c(C)c1.Cl
Ans: criterion met
